Source: PubChem BioAssay (NCI)

Tested on: MCF7 breast
Assay: NCI-60 one-dose screen, 48 h (100 = growth as untreated, 0 = no growth, -100 = all killed)
Conditions: 10 µM unless noted
About 83,000 compounds went through this panel and 20% of them were active in at least one assay; those are over-represented in the sample as a whole.
Decision: growth >= 20% yields yes, all other cases yield no.

stdin: Threshold query (growth >= 20%) on [O-][n+]1ccccc1CCN(O)CCc1cccc[n+]1[O-]
stdout: yes

stdin: Answer whether growth of Nc1c(C(=O)Nc2cccc3ccncc23)sc2nc3c(cc12)C(=O)CCC3 is greater than or equal to 20%.
stdout: yes

stdin: Could you please find out whether COc1cc(COC(=O)CCCCC[P+](c2ccccc2)(c2ccccc2)c2ccccc2)c(OC)c2c1OCO2 has growth that meets 20% or exceeds it?
stdout: yes

stdin: Confirm if growth reported for the compound CCC(C)N(CCNc1cc(OC)cc2cccnc12)CCC(C)C (stereo unspecified) is 20% or above.
stdout: yes

stdin: Form field: growth at least 20%? Entry: CN(C)C(C(N)=O)c1ccc(Cl)cc1 (stereo unspecified)
stdout: yes

stdin: Decide: growth of COc1ccc(NC(=O)c2sc3nc(C)c(C(=O)CCc4cccc(OC)c4)cc3c2N)cc1 >= 20%?
stdout: no

stdin: Please check the record Nc1nc(N)nc(NCc2ccccc2)n1 and state if its growth is at or above 20%.
stdout: yes

stdin: Is it the case that S=c1[nH]cccc1-c1nnc2n1Nc1nc3ccccc3cc1CS2 has growth reaching or exceeding 20%?
stdout: yes

stdin: Exam item: decide whether the reported growth for COc1cc2nc(-c3ccc(-c4nn[nH]n4)cc3)[nH]c(=O)c2cc1OC is at least 20%.
stdout: yes

stdin: Does the reported growth for COc1cccc(CCC(=O)c2cc3c(N)c(C(=O)Nc4ccccc4)sc3nc2C)c1 fall at or above the 20% mark?
stdout: no
